Reported cytotoxicity at 70.5 h values follow for various molecules
Assay: Human HepG2 cell viability assay in 384 well format
Format: toxicity, cell-based
Set-up: dose 125 nL, time 70.5 hour; concentration not given beside the values
Settings: HepG2 cells, read-out: Inhibition

# MOLECULE, cytotoxicity at 70.5 h (%)
records = [
    ("CCc1nccn1CC1CCCN1S(=O)(=O)N1CCCOCC1 (stereo not drawn)", 23.7),
    ("COc1ccc(C(=O)N2CCC(Nc3cccnn3)CC2)cn1", 13.7),
    ("CN(Cc1ccco1)[C@@H]1CN(Cc2cccnc2)C[C@@H]2CCCO[C@@H]21", -5),
    ("CC(C)CC(N)C1=N/C(=C2\\N=CN=N2)NO1 (stereo not drawn)", 29.4),
    ("Cn1cc(CN2CCc3c(nnn3C)C2COCc2ccccc2)cn1 (stereo not drawn)", 32.3),
    ("O=C(N1CCCC1)N1CCN(c2ccc(Cl)nn2)C(=O)C1", -7.98),
    ("CC(C)c1nnc(CN(C)C(c2ccccc2)c2ccc(F)cc2)o1 (stereo not drawn)", -2.6),
    ("CN1CCN(Cc2cn3c(n2)CN(C(=O)c2ccccn2)CC3)CC1", -2.89),
    ("CN(Cc1cnn(C)c1)C(=O)CCc1ccc2c(c1)OCO2", -58.4),
    ("CCN1CCN(C)C2(CCN(Cc3ccc(C)o3)CC2)C1=O", -7.08),
    ("O=C(CSc1nnc(N2CCCC2)s1)NC(=O)Nc1ccccc1", -5.54),
    ("O=C(Cc1ccon1)N1CCc2cc(Br)sc2C1", -3.84),
    ("COCCN(Cc1cnn(C)c1)c1nc2c(s1)c(C)nn2C", 3.84),
    ("O=C(C1CCCS1)N1CCOc2cccc(F)c21 (stereo not drawn)", -3.7),
    ("O=C(O)c1ccc(CNC(=O)C2CCN(Cc3ccco3)CC2)s1", -3.49),
    ("Cc1nccc(-c2cccc(NCC(=O)N3CCOCC3)c2)n1", -4.16),
    ("Nc1nc2c(c(N3CCC(CN4CCCC4=O)CC3)n1)CCNCC2", -8.27),
    ("COc1ccccc1NC(=O)C1(c2ccccc2)CCOCC1", -6.73),
]

====

Quick reference: cytotoxicity at 70.5 h of the listed items.
Test: Human HepG2 cell viability assay in 384 well format
Type: toxicity, cell-based
Design: dose 125 nL, time 70.5 hour; concentration not given beside the values
Details: HepG2 cells, read-out: Inhibition

# STRUCTURE_STRING, UNITS_SYMBOL, cytotoxicity at 70.5 h
data = [
    ("COCc1nc(CNc2cccc(-c3csc(C)n3)c2)cs1", "%", -0.82),
    ("CC(C)c1cc(C(=O)NCCc2nc3c(s2)CCC3)n(C)n1", "%", 8.71),
    ("CN(Cc1ccco1)Cc1cnc2n1CCN(c1ccccn1)CC2", "%", -2.44),
]

====

Assay: Human HepG2 cell viability assay in 384 well format
Type: toxicity, cell-based
Parameters: dose 125 nL, time 70.5 hour; concentration not given beside the values
Conditions: HepG2 cells, read-out: Inhibition

# MOLECULE, UNITS_SYMBOL, cytotoxicity at 70.5 h
measured = [
    ("CCOCC1CN(Cc2ccccn2)Cc2nn(CC3CC3)cc21 (stereo not drawn)", "%", -4.99),
    ("COCCCC1CCCCN1S(=O)(=O)c1cccc(C#N)c1 (stereo not drawn)", "%", 4.41),
    ("COc1cc(-c2nc(CN(CCO)CCO)c(C)o2)ccc1F", "%", 2.15),
]

====

Assay: Human HepG2 cell viability assay in 384 well format
Format: toxicity, cell-based
Set-up: dose 125 nL, time 70.5 hour; concentration not given beside the values
Conditions: HepG2 cells, read-out: Inhibition
Entries and their measured cytotoxicity at 70.5 h follow.
MEASURED_PROPERTY: cytotoxicity at 70.5 h

# COMPOUND, MEASURED_PROPERTY, TEST_VALUE
measured = [
    ("CC(C)c1nc(C2CCCN(C(=O)CCn3ccnc3)C2)no1 (stereo not given)", "cytotoxicity at 70.5 h", "13.6%"),
    ("CCOC(=O)N1CCN(C(=O)c2snnc2-c2ccc(OC)cc2)CC1", "cytotoxicity at 70.5 h", "-11.6%"),
    ("N#Cc1ccccc1NC(=O)C1CN(C(=O)c2ccc3c(c2)OCO3)C1", "cytotoxicity at 70.5 h", "-7%"),
    ("Cc1nccn1C1(C(=O)O)CCN(Cc2ccc3c(c2)OCCO3)CC1", "cytotoxicity at 70.5 h", "-3.95%"),
    ("Cc1nc(CC(=O)NCCNc2nccc(C(F)(F)F)n2)cs1", "cytotoxicity at 70.5 h", "-6.39%"),
    ("O=C(CN1CCS(=O)(=O)CC1)NCc1ccccc1F", "cytotoxicity at 70.5 h", "-8.79%"),
    ("CCOc1ccc(C(=O)N(Cc2cnn(C)c2)C(C)C)cc1", "cytotoxicity at 70.5 h", "-1.86%"),
    ("CCn1nc(C)cc1C(=O)NCc1nc(C)cc(C)n1", "cytotoxicity at 70.5 h", "-13.2%"),
    ("COc1ccccc1OC1CN(C(=O)c2c(C)nc3ccc(C)cn23)C1", "cytotoxicity at 70.5 h", "-1.56%"),
    ("COCCN1C[C@@H](C)[C@@]2(COCCN(C(=O)c3ccoc3)C2)C1", "cytotoxicity at 70.5 h", "1.95%"),
]

====

Experiment: Human HepG2 cell viability assay in 384 well format
Assay type: toxicity, cell-based
Parameters: dose 125 nL, time 70.5 hour; concentration not given beside the values
Conditions: HepG2 cells, read-out: Inhibition

# COMPOUND, cytotoxicity at 70.5 h [%]
rows = [
    ("CC(=O)Nc1ccc(CCC2(NC(=O)C3CC3)CCCCC2)cn1", -0.0205),
    ("c1cc(CN2CCCC2)ccc1CNc1cncc2nnnn12", -4.34),
    ("Cc1cccc(CN2CCCC2c2cccc(CCC(=O)O)n2)c1 (stereo not given)", 15.7),
    ("COCCNC(=O)c1sc2ccccc2c1C1CCC(CN)CC1 (stereo not given)", -1.66),
    ("Cc1nc(C)c(S(=O)(=O)NC(=O)c2ccsc2)s1", -7),
]

====

Test: Human HepG2 cell viability assay in 384 well format
Type: toxicity, cell-based
Set-up: dose 125 nL, time 70.5 hour; concentration not given beside the values
Settings: HepG2 cells, read-out: Inhibition

# MOLECULE, UNITS_SYMBOL, cytotoxicity at 70.5 h
rows = [
    ("CC(C)C(=O)N(C)Cc1nc(N2CCCC2)ncc1-c1ccncc1", "%", -6.45),
    ("Cc1nc(C2CCCNC2)nc2c1CCCN2Cc1ccccn1 (stereo not given)", "%", -3.47),
    ("Cc1sc2nc(SC(C)c3nc(C(C)(C)C)no3)nc(N)c2c1C (stereo not given)", "%", 21.9),
    ("CCS(=O)(=O)NCCCNc1ncnc2cc(F)c(F)cc12", "%", -0.956),
    ("CCC(C)(NCC(=O)Nc1ccccc1)c1nc(C)cs1 (stereo not given)", "%", -4.87),
    ("COc1ccc(CNC(=O)N2CCOCC2C2CC2)cc1C (stereo not given)", "%", -3.69),
    ("CC(=O)N1CCOC2(CCCN(Cc3ccc(N(C)C)cc3)C2)C1 (stereo not given)", "%", -2.02),
    ("Cc1nc(C(C)(C)C)sc1C(=O)NCCNc1ncccc1C#N", "%", -7.48),
    ("COc1cc(N2C[C@@H](C)[C@](O)(C3CC3)C2)ncn1", "%", 5.18),
    ("c1cnc2[nH]c(C3CCCC3)c(CN3CCOCC3)c2c1", "%", -9.59),
    ("O=C(NCCc1nccs1)[C@H](c1ccccc1)n1cnnn1", "%", -5.33),
    ("Cc1nnc2n1CCN(Cc1ncc(-c3ccc(Cl)cc3)o1)C2", "%", -11),
    ("c1cnn(CC2CCCN2Cc2nc(C3CC3)no2)c1 (stereo not given)", "%", -8.97),
    ("COc1ccc(CN2C[C@@H]3CN(CCO)C[C@@H]3C2=O)cc1", "%", -11.6),
    ("Clc1ccc(CN2CCN(Cn3nccc3-c3cccnc3)CC2)s1", "%", 6.58),
    ("NC(=O)CN1CC2(CCC1=O)CCN(Cc1cc(F)ccc1Cl)CC2", "%", -11.5),
    ("COc1ccc(-c2nc(CN3CC(n4nc(C)cc4C)C3)no2)cc1", "%", -5.57),
    ("OC1CCCN(Cc2c(-c3ccco3)[nH]c3ncccc23)C1 (stereo not given)", "%", -4.41),
    ("CC(NCc1ccccc1Cl)c1ccc(OCC(=O)NC2CC2)cc1 (stereo not given)", "%", 0.704),
    ("CCCOCCN1CCC2(CC1)CC(c1ccccc1)C(=O)N2C (stereo not given)", "%", 25.1),
]
